Hello, the source for this data is PubChem BioAssay (NCATS), in case you need it.

Test: qHTS for Inhibitors of the Functional Ribonucleoprotein Complex (vRNP) of Lassa (LASV) Arenavirus: LASV Primary Screen - GLuc reporter signal (AID 1347082); note: nearly all actives have a fitted effect of over 60% in size
Conditions: LASV minigenome vRNP, Gaussia luciferase reporter; series mostly up to 57.5 µM
Results filed as inconclusive are left out. Activity calls are given as the source filed them. Calls come from the whole dose curve; tested in HEK293 reporter line. Bridge positions count the residues as written; N and C are the ends. Square brackets hold non-standard residues; d marks the D form. Peptide text beside a SMILES is read from it. * marks the point of attachment. ξ: configuration not given here. Octanoyl(6-Me) = CCC(C)CCCCC(=O)*; ξThr(3R) = C[C@@H](O)C(N)C(=O)O; dDab = NCC[C@@H](N)C(=O)O; Dab = NCC[C@H](N)C(=O)O
Your answer must be one of the following: 1 for active, -1 for inactive

[ask] Outcome? CCC(C)CCCCC(=O)N[C@@H](CCN)C(=O)NC(C(=O)N[C@H](CCN)C(=O)N[C@@H]1CCNC(=O)C([C@@H](C)O)NC(=O)[C@@H](CCN)NC(=O)[C@@H](CCN)NC(=O)[C@@H](CC(C)C)NC(=O)[C@H](Cc2ccccc2)NC(=O)[C@H](CCN)NC1=O)[C@@H](C)O (stereo partly drawn) ({Octanoyl(6-Me)}-[Dab][ξThr(3R)][dDab][dDab][Dab]F[dL][dDab][dDab][ξThr(3R)]; lactam 4-C)
[reply] -1

[ask] Please let me know the test result on file for C[C@@H](N)c1ccc(C(=O)Nc2ccnc3[nH]ccc23)cc1 .
[reply] -1

[ask] Per the assay record, what outcome was assigned to COC(=O)CCCC(=O)OC ?
[reply] -1

[ask] Please share the test call associated with CC(C)C/C=C(\C=O)c1ccccc1 .
[reply] -1

[ask] # fetch the recorded call for O=C(O)c1cc([N+](=O)[O-])ccc1NCCCc1ccccc1 here
[reply] -1

[ask] Tell me the assay call for Nc1nc(Cl)nc2c1ncn2[C@@H]1O[C@H](CO)[C@@H](O)[C@H]1O please.
[reply] -1

[ask] Outcome logged for COc1c2c(cc3oc(CO[C@@H]4O[C@H](CO)[C@@H](O)[C@H](O)[C@H]4O)cc(=O)c13)O[C@H](C(C)(C)O)C2 in this assay:
[reply] -1

[ask] Record request — test call for c1ccc2nc(-c3ccc4c(c3)OCO4)ccc2c1
[reply] -1

[ask] Returns: the outcome recorded for COc1ccc(CN2CCc3cc(OC)c(OC)cc3C2)cc1O in this assay.
[reply] -1

[ask] Hi, do you know how NC(=O)NCCCC(=O)O came out in this test?
[reply] -1

[ask] Field: outcome | Entry: Cc1cc(NC(=O)Nc2ccc(N(C)C)cc2)c2cc(F)cc(F)c2n1
[reply] -1

[ask] Please share the test call associated with C=C1C2[C@H](OC(C)=O)[C@@H]3CC(=O)[C@]4(C)OC[C@@]3(C)[C@@]4(O)[C@@H](OC(C)=O)[C@H](OC(C)=O)[C@@]2(COC(=O)c2ccccc2)[C@@H](OC(C)=O)C[C@@H]1O (stereo partly specified) .
[reply] -1

[ask] Could you check what this test reported for CN1[C@@H](CC(=O)c2ccccc2)CCC[C@H]1C[C@H](O)c1ccccc1 ?
[reply] -1

[ask] Tell me the recorded outcome of this test for COC(=O)c1ccc2c(c1)C(NC(C)=O)CCc1cc(OC)c(OC)c(OC)c1-2 (stereo unspecified) .
[reply] -1

[ask] Per the assay record, what outcome was assigned to C=CC1CN2CCC1CC2C(O)c1ccnc2ccc(OC)cc12 (stereo unspecified) ?
[reply] -1

[ask] State the result this test recorded for O=C(CO)c1c[nH]c2ccccc12 .
[reply] -1

[ask] Can you look up the reported call for CCCCCCC[C@@H](C/C=C/CCC(=O)N(C)C/C(=C/Cl)C/C(=C\C(=O)N1C[C@H](O)CC1=O)OC)OC for me?
[reply] -1

[ask] Field: outcome | Entry: CC(C)N(CC[C@H](c1ccccc1)c1cc(CO)ccc1O)C(C)C
[reply] -1

[ask] What call does the record list for COc1cc(O)c2c(c1)C(=O)c1cc(C)cc(O)c1C2=O ?
[reply] -1

[ask] Query: recorded result category for Cn1c(=O)c(Oc2ccc(F)cc2F)cc2cnc(NC3CCOCC3)nc21 in this test
[reply] -1

[ask] Dear all, I need the recorded test outcome for Nc1ccn([C@@H]2O[C@H](CO)[C@@H](O)[C@H]2O)c(=O)n1 , thank you.
[reply] -1

[ask] # fetch the recorded call for COC(=O)c1nccc2c1[nH]c1ccccc12 here
[reply] -1

[ask] Which outcome did this test record for the molecule CC/C=C\CC1=C(C)CCC1=O ?
[reply] -1

[ask] Check the results log: what was the call for N#Cc1c(N(CC(=O)O)CC(=O)O)sc(C(=O)O)c1CC(=O)O ?
[reply] -1

[ask] Please share the test call associated with COc1cc(=O)n(C)c2c(O)cccc12 .
[reply] -1

[ask] Kindly provide the recorded test outcome for the following molecule: O=C(O)CCCC[C@@H]1CCSS1
[reply] -1

[ask] Which result was noted for this molecule in the test: CC(=O)N[C@H](C(=O)O)C(C)(C)SN=O
[reply] -1

[ask] Which outcome did this test record for the molecule CN(CC[C@@H](Oc1ccc(C(F)(F)F)cc1)c1ccccc1)CC(=O)O ?
[reply] -1

[ask] Could you check what this test reported for Nc1nc2c(cnn2CCc2ccccc2)c2nc(-c3ccco3)nn12 ?
[reply] -1

[ask] Recorded call for C=C(C=O)C[C@@H]1C[C@H](O)C2OC3C[C@]4(C)OC5/C=C\CC6OC7C(CC=CCC6OC5CCCC4OC3CC2O1)OC1CC2OC3CC(=O)OC3C[C@@H](C)C[C@@]2(C)OC1C[C@@H]7C (stereo partly specified) ?
[reply] -1

[ask] Kindly provide the recorded test outcome for the following molecule: Brc1ccc([C@H]2CN3CCSC3=N2)cc1
[reply] -1

[ask] What was the test verdict on C=CCOC(=O)c1ccccc1C(=O)OCC=C ?
[reply] -1

[ask] What did this assay record as the result for CCCCc1ccc(O)cc1 ?
[reply] -1

[ask] Answer briefly: the call reported for Cc1ccc(C)c2ccccc12 in this assay.
[reply] -1

[ask] Field: outcome | Entry: COc1cc2c(cc1Cc1cccc(Cl)c1F)c(=O)c(C(=O)O)cn2[C@H](CO)C(C)C
[reply] -1

[ask] I'd appreciate the recorded outcome for N[C@H](C(=O)O)[C@H](Cc1ccccc1)C(=O)O from this test.
[reply] -1

[ask] # lookup: test call for CN1CCc2c(c3ccccc3n2Cc2ccc(C(=O)NO)cc2)C1
[reply] -1

[ask] Returns: the outcome recorded for C=CCNc1ncnc2ccc(Br)cc12 in this assay.
[reply] -1

[ask] Test call, this molecule: Brc1c(Br)c(Br)c2[nH]cnc2c1Br
[reply] -1

[ask] Could you kindly confirm the outcome this assay logged for COC1=C2C[C@@H](C)C[C@H](OC)[C@@H](O)[C@@H](C)C=C(C)[C@H](OC(N)=O)[C@@H](OC)C=CC=C(C)C(=O)NC(=CC1=O)C2=O ?
[reply] 1

[ask] How was COc1cc(/C=C(\C#N)C(=O)c2ccc(O)c(O)c2)cc(I)c1O classified in this test?
[reply] -1
